# EXPERIMENTAL_PROTOCOL: Urinary recovery of injected dose (metabolic cages)
# Format: in vivo, Sprague Dawley rats
# TEST_CONTEXT: Sprague Dawley, rat, urine, iv, 2.5 mg/kg, individual rats, cumulative, time 9 h after i.v. injection
ASSAY_ENDPOINT: dose excreted at 9 h (%)

>>> readout_number("CC1(C)C(/C=C/C2=C(Nc3ccc(CCC(=O)O)cc3)C(=C/C=C3/N(CCC[N+](C)(C)C)c4ccc(S(=O)(=O)O)cc4C3(C)C)/CCC2)=[N+](CCC[N+](C)(C)C)c2ccc(S(=O)(=O)O)cc21")
96.9

###

# EXPERIMENTAL_PROTOCOL: Plasma protein binding (PPB) by equilibrium dialysis
# Assay type: in vitro ADME, Sprague Dawley rat
# TEST_CONTEXT: Sprague Dawley, rat, plasma (Li-Heparin), equilibrium dialysis of PBS against dye-plasma stock, 37°C, UV absorption
ASSAY_ENDPOINT: fraction unbound at 24 h, 0.2 mg/mL

>>> readout_number("CC1(C)C(/C=C/C2=C(Nc3ccc(CCN=[N+]=[N-])cc3)C(=C/C=C3/N(CCC[N+](C)(C)C)c4ccc(S(=O)(=O)O)cc4C3(C)C)/CCC2)=[N+](CCC[N+](C)(C)C)c2ccc(S(=O)(=O)O)cc21")
0.843

###

# EXPERIMENTAL_PROTOCOL: Urinary recovery of injected dose (metabolic cages)
# Assay type: in vivo, Sprague Dawley rats
# TEST_CONTEXT: Sprague Dawley, rat, urine, iv, 2.5 mg/kg, healthy rats, i.v., mean ± SD, n = 3; read-out: Urinary recovery in 24 h
ASSAY_ENDPOINT: dose excreted (%)

>>> readout_number("CC1(C)C(/C=C/C2=C(Nc3ccc(CCC(=O)O)cc3)C(=C/C=C3/N(CCC[N+](C)(C)C)c4ccc(S(=O)(=O)O)cc4C3(C)C)/CCC2)=[N+](CCC[N+](C)(C)C)c2ccc(S(=O)(=O)O)cc21")
99.4

###

# Tested on: organic anion transporter (OAT) proteins
# EXPERIMENTAL_PROTOCOL: Transcutaneous measurement of elimination kinetics in healthy rats
# Assay type: in vivo, Sprague Dawley rats
# TEST_CONTEXT: Sprague Dawley, rat, skin (transcutaneous fluorescence signal), ip; healthy rats, 50 mg/kg probenecid i.p. 30 min prior to injection, transcutaneous; read-out: T 1/2 with probenecid (clearance half-life)
ASSAY_ENDPOINT: half-life (min)

>>> readout_number("CC1(C)C(/C=C/C2=C(Nc3ccc(CCC(=O)O)cc3)C(=C/C=C3/N(CCC[N+](C)(C)C)c4ccc(S(=O)(=O)O)cc4C3(C)C)/CCC2)=[N+](CCC[N+](C)(C)C)c2ccc(S(=O)(=O)O)cc21")
48.7

###

# EXPERIMENTAL_PROTOCOL: Urinary recovery of injected dose (metabolic cages)
# Type: in vivo, Sprague Dawley rats
# TEST_CONTEXT: Sprague Dawley, rat, urine, iv, 2.5 mg/kg, individual rats, cumulative, time 24 h after i.v. injection
ASSAY_ENDPOINT: dose excreted at 24 h (%)

>>> readout_number("CC1(C)C(/C=C/C2=C(Nc3ccc(CCC(=O)O)cc3)C(=C/C=C3/N(CCC[N+](C)(C)C)c4ccc(S(=O)(=O)O)cc4C3(C)C)/CCC2)=[N+](CCC[N+](C)(C)C)c2ccc(S(=O)(=O)O)cc21 [ABZWCY]")
98.3
